Reported melting point by item:

Recorded results for 5 molecules are shown here.
Cn1ncc(C(=O)c2ccc(OCC(F)(F)C(F)(F)F)c(N=S3(=O)CCCCC3)c2Cl)c1O [Example 242] = 106 to 108 °C
CSc1ccc(C(=O)c2cnn(C)c2O)c(Cl)c1N=S1(=O)CCCCC1 [Example 42] = 157 to 159 °C
CCS(=O)(CC)=Nc1c(OC)ccc(C(=O)c2cnn(C)c2O)c1OC [Example 140] = 96 to 98 °C
CC(=O)c1ccc(C(=O)c2cnn(C)c2O)c(Cl)c1N=S1(=O)CCCCC1 [Example 255] = 100 to 104 °C
COc1ccc(C(=O)c2cnn(C)c2O)c(Cl)c1N=S(C)(=O)C(C)C (stereo not drawn) [Example 210] = 167 to 169 °C

What does the record list as melting point for COc1ccc(C(=O)C2=C(O)CCCC2=O)c(Cl)c1N=S1(=O)CCCC1 [Example 127] ?
153 to 155 °C

Would you mind telling me what melting point value was observed for Cn1ncc(C(=O)c2ccc(O)c(N=S3(=O)CCCCC3)c2Cl)c1O [Example 233] ?
165 to 167 °C

What measured melting point goes with Cn1ncc(C(=O)c2cccc(N=S3(=O)CCCCC3)c2F)c1O [Example 170] ?
162 to 164 °C

Which value of melting point has been reported for CCCOc1ccc(C(=O)c2cnn(C)c2O)c(Cl)c1N=S1(=O)CCCCC1 [Example 254] in the records?
85 to 87 °C

For the molecule shown here, Cn1ncc(C(=O)c2ccc(OCC3CC3)c(N=S3(=O)CCCCC3)c2Cl)c1O [Example 215] , give the reported melting point.
188 to 190 °C

# lookup: melting point of CCn1ncc(C(=O)c2ccc(OC)c(N=S3(=O)CCCCC3)c2Cl)c1O [Example 4]
137 to 139 °C

Return reported melting point; argument: COc1ccc(C(=O)c2cnn(C)c2O)c(OC)c1N=S1(=O)CCCC1 [Example 198]
151 to 153 °C

Need melting point, item COc1ccc(C(=O)c2cnn(C)c2O)c(Cl)c1N=S1(=O)CCCC1 [Example 126]
134 to 136 °C

What does the record list as melting point for COc1ccc(C(=O)c2cnn(C)c2O)c(Cl)c1N=S(C)(=O)c1cccs1 (stereo not drawn) [Example 192] ?
90 to 92 °C
